- Test system: Vero
- protocol summary: Cytotoxicity against african green monkey Vero cells
- Format: cell-based
- setup conditions: chlorocebus sabaeus
recorded endpoint: Activity

Answered examples (5):
O=C(c1c[nH]cn1)c1nccc2c1[nH]c1ccccc12 [DES-N-METHYLXESTOMANZAMINE A] ... Non-toxic
O=C1CCCN2[C@@H](CC1)C[C@]13CN4CCCC/C=C\CC[C@](O)(C=C(c5nccc6c5[nH]c5c(O)cccc56)C1CC4)[C@H]23 (stereo partly specified) [MANZAMINE F] ... Non-toxic
O=C1CCCN2[C@@H]3[C@@]45CN6CCCC/C=C\CC[C@]3(C=C(c3nccc7c3[nH]c3ccccc37)[C@@H]4CC6)O[C@@]2(CC1)C5 ... Non-toxic
C1=C(c2nccc3c2[nH]c2ccccc23)[C@@H]2CCN3CCCC/C=C\CC[C@]14O[C@@]15/C=C\CCCCN1[C@@H]4[C@]2(C3)C5 [12,34-OXAMANZAMINE A] ... Non-toxic
O[C@]12C=C(c3nccc4c3[nH]c3ccccc34)C3CCN(CCCC/C=C\CC1)C[C@@]31C[C@]34CC[C@H](CCCN3[C@H]12)O4 (stereo partly specified) [6-Deoxymanzamine X] ... 4760 ng/mL

# evaluate next
Ask: Need Activity of Oc1ccc2[nH]c3c(C4=C[C@@]5(O)CC/C=C\CCCCN6CC[C@@H]4[C@@]4(C6)C[C@@]67CC[C@@H](CCCN6[C@H]45)O7)nccc3c2c1 [MANZAMINE X] , thanks.
Result: Non-toxic

----------
- Tested on: Vero
- protocol summary: Cytotoxicity against african green monkey Vero cells
- Assay type: cell-based
- setup conditions: chlorocebus sabaeus
recorded endpoint: Activity

Recorded Activity, per entry:
O=C1[C@@H]2CCCCCCN2[C@@H]2[C@]13CN1CCCC/C=C\CC[C@]2(O)C=C(c2nccc4c2[nH]c2ccc(O)cc24)[C@@H]3CC1 ... Non-toxic
c1ccc2c(c1)[nH]c1cnccc12 ... Non-toxic
O=C1NCCc2c1[nH]c1ccccc21 ... Non-toxic
O[C@]12C=C(c3nccc4c3[nH]c3ccccc34)[C@@H]3CCN(CCCC/C=C\CC1)C[C@@]31C[C@@H]3/C=C\CCCCN3[C@H]12 ... 1200 ng/mL
O=C1CCCN2[C@@H](CC1)C[C@]13CN4CCCC/C=C\CC[C@](O)(C=C(c5nccc6c5[nH]c5ccccc56)C1CC4)[C@H]23 (some centres not stated) ... Non-toxic
O[C@@H]1CCCN2[C@@H](CC1)C[C@]13CN4CCCC/C=C\CC[C@](O)(C=C(c5nccc6c5[nH]c5ccccc56)[C@@H]1CC4)[C@H]23 [32,33-DIHYDRO-31-HYDROXYMANZAMINE A] ... Non-toxic

Proceed to the following item.
Ask: Report Activity for Oc1cccc2c1[nH]c1c(C3=C[C@@]4(O)CC/C=C\CCCCN5CC[C@@H]3[C@]3(CC6/C=C\CCCCN6[C@H]34)C5)nccc12 (some centres not stated) please.
Result: 1100 ng/mL

Reference source for all entries: ChEMBL document CHEMBL1146535
